Source of measurements: ChEMBL document CHEMBL4024803

target-under-test: Botulinum neurotoxin type A (Clostridium botulinum, UniProt P0DPI0)
pIC50: −log10 of the molar value.
measurement-kind: pIC50

line_notation=CC(=O)O[C@H]1C[C@H]2[C@@H]([C@H](OC(C)=O)C[C@@H]3C[C@H](N)CC[C@@]32C)[C@@H]2CC[C@H]([C@H](C)CCCNCCCCNc3ccnc4cc(Cl)ccc34)[C@@]12C value_reported=5.10

###

# chromatographic logD listing for each entry below
assay-text: Distribution co-efficient, log D of the compound at pH 1 by reversed-phase thin-layer chromatographic method
Assay type: physicochemical
condition-notes: buffer
measurement-kind: chromatographic logD

compound=CN(CCCCCCCCNc1ccnc2ccccc12)Cc1ccc(-c2ccc(-c3ccc(C#N)cc3)s2)cc1 measurement_kind="chromatographic logD" value_reported=3.33
compound="CC(=O)O[C@H]1C[C@H]2[C@@H]([C@H](OC(C)=O)C[C@@H]3C[C@H](N)CC[C@@]32C)[C@@H]2CC[C@H]([C@H](C)CCCNC(C)CCCNc3ccnc4ccccc34)[C@@]12C (mixture of isomers)" measurement_kind="chromatographic logD" value_reported=2.21
compound=N#Cc1ccc(-c2ccc(-c3ccc(CNCCCCCCNc4ccnc5ccccc45)cc3)s2)cc1 measurement_kind="chromatographic logD" value_reported=3.08

###

assay-text: Drug uptake in mouse serum at 600 mg/kg, po measured at 30 mins by UPLC-MS/MS method
Type: ADME, organism-based
condition-notes: read-out: Drug uptake
measurement-kind: concentration at 0.5 h (µM)

line_notation=CC(=O)O[C@H]1C[C@H]2[C@@H]([C@H](OC(C)=O)C[C@@H]3C[C@H](N)CC[C@@]32C)[C@@H]2CC[C@H]([C@H](C)CCCNCCCCNc3ccnc4cc(Cl)ccc34)[C@@]12C value_reported=5.9

###

target-under-test: UniProt P0DPI0
assay-text: Inhibition of Clostridium botulinum BoNT/A holotoxin-mediated SNAP-25 cleavage in mouse HBG3 cell-derived motor neurons assessed as full length of SNAP-25 at 20 uM preincubated for 30 mins followed by intoxication measured after 4 hrs by Western blot method relative to control
Design: scale not given: the % may be the effect or the level left
Outcome: criterion met for Activity of at least 70%; criterion not met for anything lower.

compound="CC(CCNCC12CC3CC(CC(C3)C1)C2)Nc1c(F)cnc2cc(Cl)ccc12 (configuration not stated)" class="criterion not met"
compound="CC(CCN(C)CC12CC3CC(CC(C3)C1)C2)Nc1ccnc2ccccc12 (configuration not stated)" class="criterion not met"
compound=N#Cc1ccc2scc(-c3ccc(CNCCCCNc4ccnc5ccccc45)cc3)c2c1 class="criterion not met"
compound="CC(CCCNCc1ccc(-c2csc3ccc(F)cc23)cc1)Nc1ccnc2ccccc12 (configuration not stated)" class="criterion not met"
compound="CC(=O)O[C@H]1C[C@H]2[C@@H]([C@H](OC(C)=O)C[C@@H]3C[C@H](N)CC[C@@]32C)[C@@H]2CC[C@H]([C@H](C)CCCNC(C)CCCNc3ccnc4ccccc34)[C@@]12C (mixture of isomers)" class="criterion met"

###

target-under-test: Botulinum neurotoxin type A (Clostridium botulinum) (UniProt P0DPI0)
assay-text: Inhibition of Clostridium botulinum BoNT/A holotoxin-mediated SNAP-25 cleavage in mouse HBG3 cell-derived motor neurons assessed as full length of SNAP-25 at 10 uM preincubated for 30 mins followed by intoxication measured after 4 hrs by Western blot method relative to control
Set-up: scale not given: the % may be the effect or the level left
# Activity listing for each entry below
measurement-kind: Activity (%)

compound=CC(=O)O[C@H]1C[C@H]2[C@@H]([C@H](OC(C)=O)C[C@@H]3C[C@H](N)CC[C@@]32C)[C@@H]2CC[C@H]([C@H](C)CCCNCCCCNc3ccnc4ccccc34)[C@@]12C target_under_test="Botulinum neurotoxin type A (Clostridium botulinum) (UniProt P0DPI0)" readout_units=% value_reported=28
compound=CC(=O)O[C@H]1C[C@H]2[C@@H]([C@H](OC(C)=O)C[C@@H]3C[C@H](NCCCCCCNc4ccnc5cc(Cl)ccc45)CC[C@@]32C)[C@@H]2CC[C@H]([C@H](C)CCCNCCCCCCNc3ccnc4cc(Cl)ccc34)[C@@]12C target_under_test="Botulinum neurotoxin type A (Clostridium botulinum) (UniProt P0DPI0)" readout_units=% value_reported=70
compound="CC(CCCNCc1ccc(-c2csc3ccc(C#N)cc23)cc1)Nc1ccnc2ccccc12 (centres undefined)" target_under_test="Botulinum neurotoxin type A (Clostridium botulinum) (UniProt P0DPI0)" readout_units=% value_reported=34
compound="CC(CCNCCC12CC3CC(CC(C3)C1)C2)Nc1c(F)cnc2ccccc12 (centres undefined)" target_under_test="Botulinum neurotoxin type A (Clostridium botulinum) (UniProt P0DPI0)" readout_units=% value_reported=30
